Please provide measured PHD Inhibition (pIC50) for the entries that follow.
target-or-system: PHD2 enzyme (residues 181-417) (Homo sapiens (Human), UniProt Q9GZT9)
Sequence (Q9GZT9 181-417): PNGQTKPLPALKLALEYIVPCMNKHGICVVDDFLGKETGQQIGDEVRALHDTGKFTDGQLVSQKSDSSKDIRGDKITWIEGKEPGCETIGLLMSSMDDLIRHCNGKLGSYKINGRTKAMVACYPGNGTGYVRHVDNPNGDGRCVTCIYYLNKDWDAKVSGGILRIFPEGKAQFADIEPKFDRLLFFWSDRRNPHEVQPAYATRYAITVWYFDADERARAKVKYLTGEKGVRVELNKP
experiment: Inhibition of PHD enzyme (LC/MS peptide hydroxylation assay)
Format: biochemical
run-conditions: PHD2 (residues 181-417) 5 nM, 60 min pre-incubation; -log(IC50), IC50 molar
Number, no unit, nothing else.

Data request: For COCC1(NC(=O)c2ccc(-n3ncc(-c4ccc(C#N)cc4C)c3O)nc2)CCCC1 [Example 129] , write its PHD Inhibition (pIC50).
Data returned: 7.14

Data request: For Cc1c(-c2cnn(-c3ccc(C(=O)N4CCOCC4)cn3)c2O)ccc(C#N)c1F [Example 327] , write its PHD Inhibition (pIC50).
Data returned: 8.47

Data request: For COCC1(CNC(=O)c2ccc(-n3ncc(-c4ccnc(OC)c4)c3O)nc2)CC1 [Example 14] , write its PHD Inhibition (pIC50).
Data returned: 7.27

Data request: For N#Cc1ccc(-c2cnn(-c3ccc(C(=O)NCCC4CCCO4)cn3)c2O)cc1 (centres unmarked) [Example 241] , write its PHD Inhibition (pIC50).
Data returned: 7.51

Data request: For COc1cc(-c2cnn(-c3ccc(C(=O)NCc4ccccc4)cn3)c2O)ccn1 [Example 2] , write its PHD Inhibition (pIC50).
Data returned: 7.03

Data request: For COc1cc(-c2cnn(-c3ccc(C(=O)NCCCN4CCCCC4)cn3)c2O)ccn1 [Example 38] , write its PHD Inhibition (pIC50).
Data returned: 7.5

Data request: For CO[C@H]1CC[C@@H](NC(=O)c2ccc(-n3ncc(-c4ccc(C#N)cc4C)c3O)nc2)CC1 [Example 119] , write its PHD Inhibition (pIC50).
Data returned: 7.11

Data request: For N#Cc1ccc(-c2cnn(-c3ccc(C(=O)NC4CCOCC4)cn3)c2O)cc1 [Example 81] , write its PHD Inhibition (pIC50).
Data returned: 7.2
